All values here come from ChEMBL document CHEMBL4673245.

Molecular target: Estrogen receptor (Homo sapiens) (UniProt P03372)
Sequence (P03372 whole entry): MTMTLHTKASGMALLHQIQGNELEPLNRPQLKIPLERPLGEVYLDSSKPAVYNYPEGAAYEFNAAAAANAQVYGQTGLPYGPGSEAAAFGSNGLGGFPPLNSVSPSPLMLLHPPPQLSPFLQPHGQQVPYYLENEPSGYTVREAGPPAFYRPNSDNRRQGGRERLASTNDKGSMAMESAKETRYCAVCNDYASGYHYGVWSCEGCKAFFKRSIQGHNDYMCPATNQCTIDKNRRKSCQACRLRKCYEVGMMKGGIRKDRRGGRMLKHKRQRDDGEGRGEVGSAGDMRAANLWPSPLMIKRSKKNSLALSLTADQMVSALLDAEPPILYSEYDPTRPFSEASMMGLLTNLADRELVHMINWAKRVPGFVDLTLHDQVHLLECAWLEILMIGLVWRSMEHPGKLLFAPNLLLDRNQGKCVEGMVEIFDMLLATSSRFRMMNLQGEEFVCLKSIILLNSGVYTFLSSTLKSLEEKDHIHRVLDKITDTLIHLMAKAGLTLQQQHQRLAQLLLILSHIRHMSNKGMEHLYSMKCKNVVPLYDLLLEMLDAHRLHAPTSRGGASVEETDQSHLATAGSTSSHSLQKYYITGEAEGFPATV
Test: Induction of ERalpha degradation in human MCF7 cells assessed as maximum degradation incubated for 18 to 24 hrs by Alexa fluor 488/Hoechst staining based immunofluorescence imaging analysis relative to fulvestrant
Assay type: cell-based
Settings: time lower […], time upper […]

| Smiles Record | Emax [%] |
| --- | --- |
| CC(C)CN1[C@H](c2ccc(OCCN3CC(CF)C3)cn2)c2ccc3[nH]ncc3c2C[C@H]1C | 99 |
| C[C@@H]1Cc2c(ccc3[nH]ncc23)[C@@H](c2ccc(O[C@H]3CCN(CCCF)C3)cn2)N1CC(F)(F)F | 98 |
| C[C@@H]1Cc2c(ccc3[nH]ncc23)[C@@H](c2ccc(NC3CN(CCCF)C3)cn2)N1CC(C)(C)F | 96 |
| CC1(C)Cc2c(ccc3[nH]ncc23)[C@@H](c2ccc(NC3CN(CCCF)C3)cn2)N1CC(F)(F)F | 95 |
| COc1cc(NC2CN(CCCF)C2)ccc1[C@@H]1c2ccc3[nH]ncc3c2C[C@@H](C)N1CC1(F)CC1 | 96 |
| COc1cc(NC2CN(CCCF)C2)ccc1[C@@H]1c2ccc3[nH]ncc3c2C[C@@H](C)N1CC(F)F | 99 |
| COc1cc(OCCN2CC(CF)C2)ccc1[C@@H]1c2ccc3[nH]ncc3c2C[C@@H](C)N1CC1(F)COC1 | 95 |
| C[C@@H]1Cc2c(ccc3[nH]ncc23)[C@@H](c2ccc(NC3CN(CCCF)C3)cn2)N1CC1(F)CC1 | 96 |
| C[C@@H]1Cc2c(ccc3[nH]ncc23)[C@@H](c2ccc(N(C)C3CN(CCCF)C3)cn2)N1CC(F)(F)F | 98 |
| COc1cc(NC2CN(CCCF)C2)ccc1[C@@H]1c2ccc3[nH]ncc3c2C[C@@H](C)N1CC(C)(F)F | 98 |
| C[C@@H]1Cc2c(ccc3[nH]ncc23)[C@@H](c2ccc(OCCN3CC(CF)C3)cn2)N1CC(F)(F)F | 96 |
| CC(C)CN1[C@H](c2c(F)cc(OCCN3CC(CF)C3)cc2F)c2ccc3[nH]ncc3c2C[C@H]1C | 99 |
| C[C@@H]1Cc2c(ccc3[nH]ncc23)[C@@H](c2ccc(NCCNCCCF)cn2)N1CC1(F)CC1 | 93 |
| CC(C)CN1[C@H](c2ccc(OCCN3CC(CF)C3)cc2)c2ccc3[nH]ncc3c2C[C@H]1C | 99 |
| C[C@@H]1Cc2c(ccc3[nH]ncc23)[C@@H](c2ccc(OCCN3CC(CF)C3)cn2)N1CC1(F)CC1 | 98 |
